Every entry's value here was drawn from paper PMC5894102.

Test: in vitro
Conditions: human, A673 cells
PARAMETER_MEASURED: IC50 at 48 h

Dear colleague, I am looking for the recorded IC50 at 48 h of the following compound: COc1ncc(-c2ccc3c(Nc4cc(Oc5cc(F)cc(F)c5)cc(C(=O)O)c4)c(S(=O)(=O)NC4CC4)cnc3c2)c(OC)n1
> 57 µM

Please examine the following record next.
Dear colleague, I am looking for the recorded IC50 at 48 h of the following compound: NS(=O)(=O)c1ccc(Cc2cn(-c3nc(C(=O)O)cs3)nc2-c2ccc(F)c(F)c2)cc1
> 57 µM

* * *

Experiment: Mouse pharmacokinetic study
Assay type: in vivo, CD1 mice
Details: male, CD1, mouse, plasma, iv, 2 mg/kg
PARAMETER_MEASURED: half-life (min)
Numeric only. Scale: min

Dear colleague, I am looking for the recorded half-life of the following compound: NS(=O)(=O)c1ccc(Cc2c(-c3cccc(-c4ccccc4)c3)nn(-c3nc(C(=O)O)cs3)c2C2CC2)cc1
51
